Numbers sourced from ChEMBL document CHEMBL3774373.

Assay: Cytotoxicity against human HepG2 cells after 24 hrs by resazurin assay
Format: cell-based
Conditions: HepG2 cells
Numbered stars: 1 amine (or outer) side, 2 acyl side, 3 side chain; on linkers, the order of the positions; unused ones are H or OH. Bridge positions count the residues as written; N and C are the ends. Square brackets hold non-standard residues; d marks the D form. Peptide text beside a SMILES is read from it. * marks the point of attachment. X1 = c1ccc(-c2ccc(N*)cc2)cc1; NH(2-ClPh) = Clc1ccccc1N*; dDab = NCC[C@@H](N)C(=O)O; Octanoyl = CCCCCCCC(=O)*; Dab = NCC[C@H](N)C(=O)O; CO = O=C([*:1])[*:2]
# CC50 at 24 h annotations
reported_property: CC50 at 24 h

compound: CCCCCCCC(=O)N[C@@H](CCN)C(=O)N[C@H](C(=O)N[C@H](CO)C(=O)N[C@H]1CCNC(=O)[C@H]([C@@H](C)O)NC(=O)[C@H](CCN)NC(=O)[C@H](CCN)NC(=O)[C@H](CC(C)C)NC(=O)[C@@H](Cc2ccccc2)NC(=O)[C@H](CCN)NC1=O)[C@@H](C)O (Octanoyl-[Dab]T[dS][Dab][Dab][dF]L[Dab][Dab]T; lactam 4-C)
experimental_value: > 300 µM
--
compound: CC(C)C[C@@H]1NC(=O)[C@@H](Cc2ccccc2)NC(=O)[C@H](CCN)NC(=O)[C@@H](NC(=O)[C@@H](CCN)NC(=O)[C@@H](NC(=O)[C@H](CCN)NC(=O)Nc2ccccc2Cl)[C@@H](C)O)CCNC(=O)[C@H]([C@@H](C)O)NC(=O)[C@H](CCN)NC(=O)[C@H](CCN)NC1=O ({NH(2-ClPh)-CO}-[Dab]T[dDab][Dab][Dab][dF]L[Dab][Dab]T; lactam 4-C)
experimental_value: > 300 µM
--
compound: CCCCCCCC(=O)N[C@@H](CCN)C(=O)N[C@H](C(=O)N[C@@H](CCN)C(=O)N[C@H]1CCNC(=O)[C@H]([C@@H](C)O)NC(=O)[C@H](CCNC(=O)[C@@H](N)CCCNC(=N)N)NC(=O)[C@H](CCN)NC(=O)[C@H](CC(C)C)NC(=O)[C@@H](Cc2ccccc2)NC(=O)[C@H](CCN)NC1=O)[C@@H](C)O (Octanoyl-[Dab]T[Dab][Dab][Dab][dF]L[Dab][Dab](Arg)T; lactam 4-C)
experimental_value: > 300 µM
--
compound: CC(C)C[C@@H]1NC(=O)[C@@H](Cc2ccccc2)NC(=O)[C@H](CCN)NC(=O)[C@@H](NC(=O)[C@H](CCN)NC(=O)[C@@H](NC(=O)[C@H](CCN)NC(=O)Nc2ccc(-c3ccccc3)cc2)[C@@H](C)O)CCNC(=O)[C@H]([C@@H](C)O)NC(=O)[C@H](CCN)NC(=O)[C@H](CCN)NC1=O ({X1-CO}-[Dab]T[Dab][Dab][Dab][dF]L[Dab][Dab]T; lactam 4-C)
experimental_value: 316 µM
--
compound: CCCCCCCC(=O)N[C@H](CCN)C(=O)N[C@H](C(=O)NCC(=O)N[C@H]1CCNC(=O)[C@H]([C@@H](C)O)NC(=O)[C@H](CCN)NC(=O)[C@H](CCN)NC(=O)[C@H](CC(C)C)NC(=O)[C@@H](Cc2ccccc2)NC(=O)[C@H](CCN)NC1=O)[C@@H](C)O (Octanoyl-[dDab]TG[Dab][Dab][dF]L[Dab][Dab]T; lactam 4-C)
experimental_value: > 300 µM
--
compound: CCCCCCCC(=O)N[C@@H](CCN)C(=O)N[C@H](C(=O)N[C@@H](CCN)C(=O)N[C@H]1CCNC(=O)[C@H]([C@@H](C)O)NC(=O)[C@H](CCN)NC(=O)[C@H](CCN)NC(=O)[C@H](CC(C)C)NC(=O)[C@@H](Cc2ccccc2)NC(=O)[C@H](CCCNC(=N)N)NC1=O)[C@@H](C)O (Octanoyl-[Dab]T[Dab][Dab]R[dF]L[Dab][Dab]T; lactam 4-C)
experimental_value: > 300 µM
